# Measurement Target: T1, IL10Rα/IL2Rγ receptor (human, UniProt Q13651 22-578; P31785 23-369)
# T1 sequence (looked up) 1: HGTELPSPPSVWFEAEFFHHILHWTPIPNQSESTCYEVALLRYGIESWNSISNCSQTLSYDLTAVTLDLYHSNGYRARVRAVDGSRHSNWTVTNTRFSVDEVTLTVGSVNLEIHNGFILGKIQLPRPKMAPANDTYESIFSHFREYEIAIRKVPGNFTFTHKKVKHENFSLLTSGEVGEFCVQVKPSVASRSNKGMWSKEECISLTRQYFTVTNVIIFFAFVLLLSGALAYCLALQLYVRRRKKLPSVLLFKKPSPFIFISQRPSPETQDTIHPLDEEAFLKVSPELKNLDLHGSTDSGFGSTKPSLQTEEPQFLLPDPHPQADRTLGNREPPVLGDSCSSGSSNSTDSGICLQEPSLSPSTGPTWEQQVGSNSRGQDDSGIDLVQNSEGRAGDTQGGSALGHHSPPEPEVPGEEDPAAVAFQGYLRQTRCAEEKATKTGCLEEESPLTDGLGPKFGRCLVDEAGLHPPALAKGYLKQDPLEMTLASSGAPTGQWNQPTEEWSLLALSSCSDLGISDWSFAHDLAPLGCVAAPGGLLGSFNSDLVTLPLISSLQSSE
# T1 sequence (looked up) 2: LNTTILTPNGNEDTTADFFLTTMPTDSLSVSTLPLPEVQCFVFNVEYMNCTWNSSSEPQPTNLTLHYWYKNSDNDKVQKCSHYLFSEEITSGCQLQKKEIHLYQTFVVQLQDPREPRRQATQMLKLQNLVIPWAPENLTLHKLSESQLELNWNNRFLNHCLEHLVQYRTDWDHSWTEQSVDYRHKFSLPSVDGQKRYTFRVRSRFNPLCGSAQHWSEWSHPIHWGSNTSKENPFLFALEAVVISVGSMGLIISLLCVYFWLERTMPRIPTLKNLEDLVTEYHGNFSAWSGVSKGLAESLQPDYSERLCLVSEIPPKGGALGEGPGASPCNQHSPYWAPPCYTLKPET
# Protocol Text: cell-based or functional assay
Reported Endpoint: pSTAT3 MFI, CD4 T cells, 10 nM (unstimulated 1887) (MFI)

1. DR441(DR236-DR231) (bispecific antibody) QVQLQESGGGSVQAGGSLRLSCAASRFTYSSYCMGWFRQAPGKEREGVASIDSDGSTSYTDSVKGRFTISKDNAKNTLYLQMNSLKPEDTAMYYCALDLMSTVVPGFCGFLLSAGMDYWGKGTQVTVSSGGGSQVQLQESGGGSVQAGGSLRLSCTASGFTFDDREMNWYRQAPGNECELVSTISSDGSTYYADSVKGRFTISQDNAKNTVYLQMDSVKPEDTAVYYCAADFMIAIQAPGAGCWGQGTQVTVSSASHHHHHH: 6760
2. DR471(DR241-DR231) (bispecific antibody) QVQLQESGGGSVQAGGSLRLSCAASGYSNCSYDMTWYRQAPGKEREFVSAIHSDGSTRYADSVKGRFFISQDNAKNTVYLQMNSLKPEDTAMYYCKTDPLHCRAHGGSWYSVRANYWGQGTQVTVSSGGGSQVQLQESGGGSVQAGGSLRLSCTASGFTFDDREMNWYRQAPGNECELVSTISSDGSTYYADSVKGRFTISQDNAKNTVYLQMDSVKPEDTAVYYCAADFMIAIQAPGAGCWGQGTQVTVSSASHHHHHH: 6800
3. DR465(DR240-DR231) (bispecific antibody) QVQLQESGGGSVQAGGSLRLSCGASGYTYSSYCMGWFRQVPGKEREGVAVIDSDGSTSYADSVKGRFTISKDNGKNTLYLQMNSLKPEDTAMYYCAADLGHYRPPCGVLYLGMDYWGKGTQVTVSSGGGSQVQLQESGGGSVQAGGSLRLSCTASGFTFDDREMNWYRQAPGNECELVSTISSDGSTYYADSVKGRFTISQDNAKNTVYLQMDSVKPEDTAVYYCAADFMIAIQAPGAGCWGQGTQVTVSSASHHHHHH: 7240
4. DR395(DR229-DR239) (bispecific antibody) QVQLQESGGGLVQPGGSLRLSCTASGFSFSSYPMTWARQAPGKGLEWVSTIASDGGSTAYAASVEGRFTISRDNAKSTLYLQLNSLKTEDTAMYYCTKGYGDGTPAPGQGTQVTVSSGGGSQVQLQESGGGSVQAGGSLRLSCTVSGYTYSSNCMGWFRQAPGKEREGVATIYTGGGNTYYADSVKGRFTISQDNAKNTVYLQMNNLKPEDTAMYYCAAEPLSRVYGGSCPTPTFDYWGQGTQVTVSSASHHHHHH: 5180
